tested system: human α4β3δ GABAA receptor (β3 subunit) (Homo sapiens, UniProt P28472)
Sequence (P28472 26-473): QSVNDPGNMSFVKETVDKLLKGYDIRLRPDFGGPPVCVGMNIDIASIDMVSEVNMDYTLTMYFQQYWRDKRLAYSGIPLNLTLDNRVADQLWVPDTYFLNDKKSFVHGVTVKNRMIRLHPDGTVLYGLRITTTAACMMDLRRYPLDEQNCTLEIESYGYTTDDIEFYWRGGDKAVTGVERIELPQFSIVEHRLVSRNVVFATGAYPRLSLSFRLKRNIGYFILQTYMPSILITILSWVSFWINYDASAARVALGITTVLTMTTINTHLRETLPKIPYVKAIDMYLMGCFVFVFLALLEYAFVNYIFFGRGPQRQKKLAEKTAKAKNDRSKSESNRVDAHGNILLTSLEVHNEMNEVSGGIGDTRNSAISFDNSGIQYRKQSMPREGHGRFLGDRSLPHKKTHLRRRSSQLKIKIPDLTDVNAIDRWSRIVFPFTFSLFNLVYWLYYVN
Sequence (P48169 36-554 partner): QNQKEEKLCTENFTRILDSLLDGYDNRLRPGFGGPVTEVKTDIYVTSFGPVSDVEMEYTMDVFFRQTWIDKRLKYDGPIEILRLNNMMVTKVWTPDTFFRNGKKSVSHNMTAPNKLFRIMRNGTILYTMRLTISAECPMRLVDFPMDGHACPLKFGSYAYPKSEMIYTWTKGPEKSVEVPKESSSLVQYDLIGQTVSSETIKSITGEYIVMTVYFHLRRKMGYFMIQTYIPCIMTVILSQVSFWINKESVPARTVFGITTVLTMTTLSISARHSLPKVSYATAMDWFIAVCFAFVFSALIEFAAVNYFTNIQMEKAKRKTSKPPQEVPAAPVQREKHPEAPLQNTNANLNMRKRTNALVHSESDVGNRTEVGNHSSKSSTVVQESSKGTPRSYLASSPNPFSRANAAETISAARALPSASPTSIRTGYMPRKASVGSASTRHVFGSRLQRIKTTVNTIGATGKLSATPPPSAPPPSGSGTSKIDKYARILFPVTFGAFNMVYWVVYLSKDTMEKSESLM
Sequence (O14764 25-452 partner): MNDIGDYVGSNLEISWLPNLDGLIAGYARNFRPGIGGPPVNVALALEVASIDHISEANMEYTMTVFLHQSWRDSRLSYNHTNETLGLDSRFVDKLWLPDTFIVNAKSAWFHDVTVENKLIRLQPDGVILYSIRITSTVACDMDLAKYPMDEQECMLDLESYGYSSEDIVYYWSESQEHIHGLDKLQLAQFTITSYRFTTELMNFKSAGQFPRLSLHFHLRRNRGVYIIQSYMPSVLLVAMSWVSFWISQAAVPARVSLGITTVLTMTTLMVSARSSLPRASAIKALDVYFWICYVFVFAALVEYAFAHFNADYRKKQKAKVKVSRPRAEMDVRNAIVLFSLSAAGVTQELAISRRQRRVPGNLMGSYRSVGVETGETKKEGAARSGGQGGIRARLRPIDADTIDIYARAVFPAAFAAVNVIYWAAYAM
assay info: two-electrode voltage clamp in oocytes, potentiation of GABA EC10 currents
Type: cell-based

mol smiles	tested system	EC50 (nM)
CC(=O)[C@H]1CC[C@H]2[C@@H]3CC[C@H]4C[C@H](O)CC[C@]4(C)[C@H]3CC[C@]12C	human α4β3δ GABAA receptor (β3 subunit) (Homo sapiens, UniProt P28472)	520
